- ASSAY NOTES: qHTS for Inhibitors of binding or entry into cells for Lassa Virus; also: % is scaled to controls: 0 for no effect and ±100 for the full control effect
- CONDITIONS: Lassa virus pseudotyped entry inhibition, cell-based qHTS; series mostly up to 49.2 µM
Among all 18,000 compounds or so, about 750 (4.2%) were called active. About 13% were inconclusive and are not listed. The sample as a whole holds a higher share of actives than the screen did.
PROPERTY MEASURED: activity change, negative = inhibition

Worked examples follow.
CCC1CN(CCNC(=O)c2cccnc2C)Cc2cc(OC)ccc2O1 (configuration not stated) = inactive
O=C(C=Cc1ccccc1)Nc1cccc(C(=O)N2CCCCC2)c1 = inactive
Cc1cnc(C(=O)N2CCOc3ccc(CN4CCCC(C(=O)c5cccnc5)C4)cc3C2)[nH]1 (configuration not stated) = inactive
CCOC(=O)CCN1C(=O)[C@@H]2[C@H]3[C@H](O)[C@H](O)CC(=NOCC(C)C)[C@@H]3CC[C@H]2C1=O = -24.6% [at 8.59 µM] (inactive)
CCOC(=O)Cn1c(=O)sc2cccc(Cl)c21 = inactive
CC1C(O)CC2C(C(=O)O)=CO[C@@H](O[C@H]3OC(CO)C(O)C(O)C3O)C21 (some centres not stated) = inactive

Tell me the measured activity change, negative = inhibition of CN1CCCCCC1C(=O)NCCN1Cc2ccccc2OC(c2ccsc2)C1 (configuration not stated) , please.
inactive

Tell me the measured activity change, negative = inhibition of `CCCC[C@]12Cc3cc(C#N)ccc3[C@H](O1)c1c(cc(-c3ccccc3)oc1=O)O2` , please.
20.3% [at 8.59 µM] (inactive)

Tell me the measured activity change, negative = inhibition of `CC(C)NC[C@H](O)c1ccc2ccccc2c1` , please.
inactive
